SYSTEM_TESTED: Legumain (Homo sapiens)
Sequence (Q99538 whole entry): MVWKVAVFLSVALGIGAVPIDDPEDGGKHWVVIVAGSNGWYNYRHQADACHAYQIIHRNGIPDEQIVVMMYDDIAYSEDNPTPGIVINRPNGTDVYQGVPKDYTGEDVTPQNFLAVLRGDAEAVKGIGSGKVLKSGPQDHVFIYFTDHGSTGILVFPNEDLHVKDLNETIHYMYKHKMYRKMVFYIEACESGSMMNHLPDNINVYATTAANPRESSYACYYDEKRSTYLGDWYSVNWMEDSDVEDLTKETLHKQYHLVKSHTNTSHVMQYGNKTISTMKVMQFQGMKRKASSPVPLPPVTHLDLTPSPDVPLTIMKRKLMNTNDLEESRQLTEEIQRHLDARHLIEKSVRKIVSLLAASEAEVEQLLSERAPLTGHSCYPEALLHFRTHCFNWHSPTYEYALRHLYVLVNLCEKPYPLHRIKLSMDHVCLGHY
ASSAY_REMARKS: Inhibition of recombinant human legumain using Z-Ala-Ala-Asn-MCA substrate measured every 2 mins for 60 mins by microplate reader analysis
Exercise: state measured pIC50 for each of the molecules provided.
Answer as the number alone; pIC50 is minus log10 of concentration in mol/L.

Recorded pIC50 for `COc1ccc(-c2ccc(S(=O)(=O)N3CCC[C@H]3C(=O)N[C@H](C#N)CC(N)=O)cc2)cc1` , please? 8.22

Recorded pIC50 for `N#C[C@H](CC(N)=O)NC(=O)[C@@H]1CCCN1S(=O)(=O)c1ccc(-c2ccc(F)cc2)cc1` , please? 7.48

Recorded pIC50 for `CCc1ccc(-c2ccc(S(=O)(=O)N3CCC[C@H]3C(=O)N[C@H](C#N)CC(N)=O)cc2)cc1` , please? 7.15

Recorded pIC50 for `N#C[C@H](CC(N)=O)NC(=O)[C@@H]1CCCN1S(=O)(=O)c1ccc(Br)cc1` , please? 6.55

Recorded pIC50 for `CCOc1ccc(-c2ccc(S(=O)(=O)N3CCC[C@H]3C(=O)N[C@H](C#N)CC(N)=O)cc2)cc1` , please? 7.14

Recorded pIC50 for `N#C[C@H](CC(N)=O)NC(=O)[C@@H]1CCCN1S(=O)(=O)c1ccc(-c2ccccc2Cl)cc1` , please? 7.46

Recorded pIC50 for `Cc1ccc(-c2ccc(S(=O)(=O)N3CCC[C@H]3C(=O)N[C@H](C#N)CC(N)=O)cc2)cc1` , please? 7.49

Recorded pIC50 for `N#C[C@H](CC(N)=O)NC(=O)[C@@H]1CCCN1S(=O)(=O)c1ccc(Cl)cc1` , please? 7.14

Recorded pIC50 for `CC(C)c1ccc(-c2ccc(S(=O)(=O)N3CCC[C@H]3C(=O)N[C@H](C#N)CC(N)=O)cc2)cc1` , please? 8.30

Recorded pIC50 for `N#Cc1ccc(-c2ccc(S(=O)(=O)N3CCC[C@H]3C(=O)N[C@H](C#N)CC(N)=O)cc2)cc1` , please? 7.48

Recorded pIC50 for `N#C[C@H](CC(N)=O)NC(=O)[C@@H]1CCCN1S(=O)(=O)c1ccc(-c2ccc(C(F)(F)F)cc2)cc1` , please? 6.92

Recorded pIC50 for `N#C[C@H](CC(N)=O)NC(=O)[C@@H]1CCCN1S(=O)(=O)c1ccc(-c2ccc(Cl)cc2)cc1` , please? 7.35

Recorded pIC50 for `N#C[C@H](CC(N)=O)NC(=O)[C@@H]1CCCN1S(=O)(=O)c1ccc(C(F)(F)F)cc1` , please? 6.48

Recorded pIC50 for `N#C[C@H](CC(N)=O)NC(=O)[C@@H]1CCCN1S(=O)(=O)c1ccc(-c2cccc(F)c2)cc1` , please? 7.33

Recorded pIC50 for `N#C[C@H](CC(N)=O)NC(=O)[C@@H]1CCCN1S(=O)(=O)c1ccc(Cl)cc1Cl` , please? 6.23

Recorded pIC50 for `N#C[C@H](CC(N)=O)NC(=O)[C@@H]1CCCN1S(=O)(=O)c1ccc(F)cc1` , please? 6.57

Recorded pIC50 for `CC(C)(C)c1ccc(-c2ccc(S(=O)(=O)N3CCC[C@H]3C(=O)N[C@H](C#N)CC(N)=O)cc2)cc1` , please? 7.15

Recorded pIC50 for `N#C[C@H](CC(N)=O)NC(=O)[C@@H]1CCCN1S(=O)(=O)c1ccc(-c2ccc3c(c2)OCO3)cc1` , please? 7.31

Recorded pIC50 for `N#C[C@H](CC(N)=O)NC(=O)[C@@H]1CCCN1S(=O)(=O)c1ccc(-c2ccccc2)cc1` , please? 7.92

Recorded pIC50 for `CC(C)Oc1ccc(-c2ccc(S(=O)(=O)N3CCC[C@H]3C(=O)N[C@H](C#N)CC(N)=O)cc2)cc1` , please? 6.01
